Tested target: D(1A) dopamine receptor (Homo sapiens) (UniProt P21728)
Sequence (P21728 whole entry, looked up): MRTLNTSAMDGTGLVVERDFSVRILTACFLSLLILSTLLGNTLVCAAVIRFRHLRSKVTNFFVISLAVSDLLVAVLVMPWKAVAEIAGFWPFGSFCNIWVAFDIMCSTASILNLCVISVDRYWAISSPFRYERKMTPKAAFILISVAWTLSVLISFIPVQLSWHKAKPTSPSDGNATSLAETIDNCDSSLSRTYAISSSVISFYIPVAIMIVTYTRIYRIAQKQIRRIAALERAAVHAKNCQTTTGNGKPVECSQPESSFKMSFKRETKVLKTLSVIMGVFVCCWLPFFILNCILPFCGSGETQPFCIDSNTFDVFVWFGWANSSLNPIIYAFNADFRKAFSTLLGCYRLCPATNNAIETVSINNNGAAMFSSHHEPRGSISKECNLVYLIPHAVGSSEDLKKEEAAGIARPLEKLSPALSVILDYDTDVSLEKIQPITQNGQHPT
Assay details: HTS Assay for Allosteric Agonists of the Human D1 Dopamine Receptor: Primary Screen for Agonists (AID 488981); on activation: 0% is about no effect
Assay setup: Inducible HEK293 T-REx D1 cells, calcium-flux fluorescence, 180 s kinetic; series mostly up to 41.8 µM
Results filed as inconclusive are left out. Active and inactive are the calls of the source. The call rests on the fitted dose curve; in most records, active means well fitted activation curve with a large enough effect; inconclusive means small, poorly fitted or top-dose-only effect; inactive means flat fitted curve, though single readings scatter.
I would appreciate it if you answered using one of these outcomes: class 1 for active, class 0 for inactive

Reference set (9 entries):
[
  {
    "Compound": "C1CCc2nnnn2CC1",
    "Class assignment": "class 0"
  },
  {
    "Compound": "N[C@H](CO)C(=O)O",
    "Class assignment": "class 0"
  },
  {
    "Compound": "C[C@@H]1C(=O)NC2=Nc3cccc(Cl)c3CN21",
    "Class assignment": "class 0"
  },
  {
    "Compound": "CNCCC=C1c2ccccc2CCc2ccccc21",
    "Class assignment": "class 1"
  },
  {
    "Compound": "CN1C2CCC1CC(OC(=O)c1c[nH]c3ccccc13)C2 (stereo not given)",
    "Class assignment": "class 0"
  },
  {
    "Compound": "Nc1cc(Cl)c(NC2=NCCN2)c(Cl)c1",
    "Class assignment": "class 0"
  },
  {
    "Compound": "CCCC1O[C@@H]2C[C@H]3[C@@H]4CCC5=CC(=O)C=C[C@]5(C)[C@H]4[C@@H](O)C[C@]3(C)[C@]2(C(=O)CO)O1 (stereo not given in full)",
    "Class assignment": "class 0"
  },
  {
    "Compound": "CC[C@H](C)C(=O)O[C@H]1CCC=C2C=C[C@H](C)[C@H](CC[C@@H]3C[C@@H](O)CC(=O)O3)[C@H]21",
    "Class assignment": "class 0"
  },
  {
    "Compound": "CC1(C)CCC(NC(=O)[C@@H](N)CCC(=O)O)CC1",
    "Class assignment": "class 0"
  }
]

Called result for `CC(C)COC(=O)OCN1C(=O)CN(CCN2CC(=O)N(COC(=O)OCC(C)C)C(=O)C2)CC1=O`
class 0

====

Assay details: qHTS assay for small molecule disruptors of the mitochondrial membrane potential - 5 hr assay (AID 651755); further: nearly all actives have a fitted effect of over 40% in size
Assay setup: JC-1-type ratio dye; series mostly up to 92.2 µM
Text: National Center for Advancing Translational Sciences [NCATS] NIH Chemical Genomics Center [NCGC] National Institutes of Environmental Health Sciences [NIEHS] National Toxicology Program [NTP] Mitochondrial membrane potential (MMP), one of the parameters for mitochondrial function, is generated by mitochondrial electron transport chain that creates an electrochemical gradient by a series of redox reactions. […] The dye accumulates in the mitochondria of healthy cells as aggregates, with red fluorescence. […]
Records with an inconclusive call do not appear. Activity calls are given as the source filed them. Calls follow the shape of the full dose curve. Numbered stars: 1 amine (or outer) side, 2 acyl side, 3 side chain; on linkers, the order of the positions; unused ones are H or OH. Bridge positions count the residues as written; N and C are the ends. Square brackets hold non-standard residues; d marks the D form. Peptide text beside a SMILES is read from it. I, II: the chains in the order shown. Actinocin(9to1) = Cc1c2oc3c(C)ccc(C(=O)[*:1])c3nc-2c(C(=O)[*:2])c(N)c1=O; NMeV = CN[C@H](C(=O)O)C(C)C; Sar = CNCC(=O)O
API: response.call in Yes = active, No = inactive

[
  {
    "Molecule": "Cc1c2oc3c(C)ccc(C(=O)N[C@@H]4C(=O)N[C@H](C(C)C)C(=O)N5CCC[C@H]5C(=O)N(C)CC(=O)N(C)[C@@H](C(C)C)C(=O)O[C@@H]4C)c3nc-2c(C(=O)N[C@@H]2C(=O)N[C@H](C(C)C)C(=O)N3CCC[C@H]3C(=O)N(C)CC(=O)N(C)[C@@H](C(C)C)C(=O)O[C@@H]2C)c(N)c1=O (I: T[dV]P[Sar][NMeV] / II: T[dV]P[Sar][NMeV]; ester I:1-I:C, II:1-II:C; linker I:N-II:N via Actinocin(9to1))",
    "Class assignment": "No"
  }
]

// switching to the query molecule
What did the test return for `CC(C)(C)CC(C)(C)c1ccc(OCCOCC[N+](C)(C)Cc2ccccc2)cc1` ?
No
